All figures here come from patent US20250115597A1.

- System: Ba/F3-FL-TYK2-P760L cells (Homo sapiens, UniProt P29597, P760L, cells depend on it)
- Construct: BaF3-FL-T2P760L (nM)
- Sequence (P29597 whole entry P760L): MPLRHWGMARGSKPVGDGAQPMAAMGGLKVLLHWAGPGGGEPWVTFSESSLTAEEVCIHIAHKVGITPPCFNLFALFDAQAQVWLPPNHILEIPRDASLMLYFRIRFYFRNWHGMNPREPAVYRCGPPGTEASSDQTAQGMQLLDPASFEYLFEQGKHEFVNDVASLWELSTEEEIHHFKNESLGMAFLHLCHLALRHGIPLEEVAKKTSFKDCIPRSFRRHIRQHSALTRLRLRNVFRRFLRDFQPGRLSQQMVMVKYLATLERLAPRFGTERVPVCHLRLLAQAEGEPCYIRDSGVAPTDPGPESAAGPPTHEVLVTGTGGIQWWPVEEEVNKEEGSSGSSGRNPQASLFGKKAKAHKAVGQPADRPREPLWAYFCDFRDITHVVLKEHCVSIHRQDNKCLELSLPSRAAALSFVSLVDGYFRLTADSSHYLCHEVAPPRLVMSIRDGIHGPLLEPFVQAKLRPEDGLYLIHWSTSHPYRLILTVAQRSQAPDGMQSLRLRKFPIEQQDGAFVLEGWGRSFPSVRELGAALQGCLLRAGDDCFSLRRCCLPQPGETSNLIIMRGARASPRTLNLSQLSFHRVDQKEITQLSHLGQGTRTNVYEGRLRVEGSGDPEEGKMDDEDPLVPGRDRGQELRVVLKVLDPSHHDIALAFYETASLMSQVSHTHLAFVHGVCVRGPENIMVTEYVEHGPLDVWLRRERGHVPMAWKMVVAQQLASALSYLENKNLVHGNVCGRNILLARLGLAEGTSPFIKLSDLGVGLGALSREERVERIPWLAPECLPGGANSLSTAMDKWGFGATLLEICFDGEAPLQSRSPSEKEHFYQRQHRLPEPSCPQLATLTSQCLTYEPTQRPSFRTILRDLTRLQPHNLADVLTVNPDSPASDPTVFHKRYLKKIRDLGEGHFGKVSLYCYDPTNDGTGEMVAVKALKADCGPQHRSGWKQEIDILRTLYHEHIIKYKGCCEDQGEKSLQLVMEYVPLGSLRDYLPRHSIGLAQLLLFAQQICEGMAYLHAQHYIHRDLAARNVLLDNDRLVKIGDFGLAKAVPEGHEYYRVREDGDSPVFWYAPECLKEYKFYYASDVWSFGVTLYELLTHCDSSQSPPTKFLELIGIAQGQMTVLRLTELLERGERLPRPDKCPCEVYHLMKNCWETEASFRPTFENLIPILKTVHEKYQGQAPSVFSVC
- Protocol Summary: Anti-proliferative assay, Ba/F3-FL-TYK2-P760L cells (Cell-Titer Glo)
- Assay type: cell-based
- Experimental Setup: 72 h, read-out: BaF3-FL-T2P760L IC50
Assay Metric: GI50 (nM)

(a) [2H]C([2H])([2H])NC(=O)c1cnc2cc1Nc1cc(cc(-c3ncn(C4CC4)n3)c1OC)COCc1cc(F)cc(n1)N2
(b) [2H]C([2H])([2H])NC(=O)c1cnc(NC(=O)C2CC2)cc1Nc1cc(F)c2cnn(CC)c2c1OC
Kindly identify which of a and b has the larger recorded GI50 value. State your choice using its label.
b

(a) [2H]C([2H])([2H])NC(=O)c1cnc(NC(=O)C2CC2)cc1Nc1cn(C)c2c(F)cn(CC(F)(F)F)c(=O)c12
(b) [2H]C([2H])([2H])NC(=O)c1cnc(Nc2ccn(C)n2)cc1Nc1ccc2cnn(C([2H])([2H])[2H])c2c1OC
Kindly compare a with b and tell me which has the lower GI50 figure. State your choice using its label.
a

* * *

- Protocol Summary: Microsomal metabolic stability assay
- Format: in vitro ADME
- Experimental Setup: pH 7.4; human liver microsomes, 0.5 mg/mL protein, 1 μM compound; read-out: Human LM T½
Assay Metric: half-life at 1 μM (min)

molecule="[2H]C([2H])([2H])NC(=O)c1cnc(Nc2cccc(F)n2)cc1Nc1cn(C)c2c(Cl)cn(CC)c(=O)c12 [Example 161]" assay_metric="half-life at 1 μM" measured_result=18.6
molecule="[2H]C([2H])([2H])NC(=O)c1cnc(NC(=O)C2CC2)cc1Nc1cn(C)c2ccn(C(C)C(F)(F)F)c(=O)c12 (centres unmarked) [Example 190]" assay_metric="half-life at 1 μM" measured_result=20
molecule="[2H]C([2H])([2H])NC(=O)c1cnc(Nc2ccc(F)cn2)cc1Nc1ccc2cnn(C([2H])([2H])[2H])c2c1OC [Example 141]" assay_metric="half-life at 1 μM" measured_result=18.2
molecule="[2H]C([2H])([2H])NC(=O)c1cnc(NC(=O)C2CC2)cc1Nc1cn(C)c2ncn(CC(F)(F)F)c(=O)c12 [Example 195]" assay_metric="half-life at 1 μM" measured_result=34.6
molecule="[2H]C([2H])([2H])NC(=O)c1cnc(NC(=O)C2CC2)cc1Nc1ccc2cnn(CC(N)=O)c2c1OC [Example 259]" assay_metric="half-life at 1 μM" measured_result=316

(I) [2H]C([2H])([2H])NC(=O)c1cnc(Nc2ccc(C#N)cc2)nc1Nc1cccc(-c2ncn(C)n2)c1OC [Example 28]
(II) [2H]C([2H])([2H])NC(=O)c1cnc(NC(=O)C2CC2)cc1Nc1ccc2cnn(CC(F)F)c2c1OC [Example 131]
(III) [2H]C([2H])([2H])NC(=O)c1cnc(Nc2cc(F)c(F)cn2)cc1Nc1cn(C)c2c(F)cn(C)c(=O)c12 [Example 121]
(IV) CCn1ccc2c(c(Nc3cc(Nc4ncc(F)cc4F)ncc3C(=O)NC)cn2C)c1=O [Example 98]
(V) [2H]C([2H])([2H])NC(=O)c1cnc2cc1Nc1cc(cc(-c3ncn(C)n3)c1OC)COCc1nc(ccc1F)N2 [Example 66]
Let's sort these by half-life at 1 μM, smallest first. Go ahead? Returns: the labels listed in the requested order.
III, II, IV, V, I

(A) [2H]C([2H])([2H])NC(=O)c1cnc(Nc2cccc(C#N)c2)nc1Nc1cccc(-c2ncn(C)n2)c1OC [Example 19]
(B) CNC(=O)c1cnc(NC(=O)C2CC2)cc1Nc1cn(C)c2ccn(C)c(=O)c12 [Example 12]
Kindly identify which of A and B has the larger recorded half-life at 1 μM value. State your choice using its label.
A
(A: 777 min, B: 53.7 min)

* * *

- System: TYK2-JH2 domain (Homo sapiens)
- Construct: IC50 on JH2 domain activity (nM)
- Protocol Summary: Binding activity test for JH2 domain of TYK2 (Tb-antibody/tracer FRET)
pIC50: −log10 of the molar value.
Assay Metric: pIC50

compound="[2H]C([2H])([2H])NC(=O)c1cnc(NC(=O)C2CC2)cc1Nc1ccc2cn[nH]c2c1OC [Example 207]" assay_metric=pIC50 measured_result=9.39
compound="[2H]C([2H])([2H])NC(=O)c1cnc(NC(=O)C2CC2)cc1Nc1ccn2ncc(CC)c2c1OC [Example 166]" assay_metric=pIC50 measured_result=9.81
compound="[2H]C([2H])([2H])NC(=O)c1cnc(NC(=O)C2CC2)cc1Nc1ncc2ncn(CC)c2c1OC [Example 260]" assay_metric=pIC50 measured_result=9.91
compound="[2H]C([2H])([2H])NC(=O)c1cnc(NC(=O)C2CC2)cc1Nc1ccn2nccc2c1OC [Example 258]" assay_metric=pIC50 measured_result=9.08

(1) [2H]C([2H])([2H])NC(=O)c1cnc(NC(=O)C2CC2)cc1Nc1ccc2nc(C)n(CC)c2c1OC [Example 168]
(2) [2H]C([2H])([2H])NC(=O)c1cnc(Nc2ccc(F)cn2)cc1Nc1ncc2cnn(CC)c2c1OC [Example 263]
Kindly identify which of 1 and 2 has the larger recorded pIC50 value. State your choice using its label.
2

* * *

- Protocol Summary: Microsomal metabolic stability assay
- Type: in vitro ADME
- Experimental Setup: pH 7.4; human liver microsomes, 0.5 mg/mL protein, 1 μM compound; read-out: Human LM Clint
Assay Metric: microsomal CLint at 1 μM (µL/min/mg)

Field: example entries. Status: answers known.
compound_structure_string=[2H]C([2H])([2H])NC(=O)c1cnc(Nc2cccc(C#N)c2)nc1Nc1cccc(-c2ncn(C)n2)c1OC measured_result=4.46
compound_structure_string=CNC(=O)c1cnc(NC(=O)C2CC2)cc1Nc1cn(C)c2c(F)cn(C)c(=O)c12 measured_result=23.6

(A) [2H]C([2H])([2H])NC(=O)c1nnc2cc1Nc1cc(cc(-c3ncn(C)n3)c1OC)CN(C)Cc1nc(ccc1F)N2
(B) [2H]C([2H])([2H])NC(=O)c1cnc(Nc2ccncn2)cc1Nc1cc(F)c2cnn(CC)c2c1OC
(C) [2H]C([2H])([2H])NC(=O)c1cnc2cc1Nc1cc(cc(-c3ncn(C)n3)c1OC)COCc1nc(ccc1F)N2
(D) [2H]C([2H])([2H])NC(=O)c1cnc(NC(=O)C2CC2)cc1Nc1cn(C)c2ccn(CC(F)(F)F)c(=O)c12
Let's sort these by microsomal CLint at 1 μM, smallest first. Go ahead? Returns: the labels listed in the requested order.
C, A, D, B
(C: 6.48 µL/min/mg, A: 16.9 µL/min/mg, D: 48.8 µL/min/mg, B: 79.9 µL/min/mg)

* * *

- System: TYK2-JH2 domain (Homo sapiens, UniProt P29597)
- Construct: IC50 on JH2 domain activity (nM)
- Sequence (P29597 589-875 limits assumed): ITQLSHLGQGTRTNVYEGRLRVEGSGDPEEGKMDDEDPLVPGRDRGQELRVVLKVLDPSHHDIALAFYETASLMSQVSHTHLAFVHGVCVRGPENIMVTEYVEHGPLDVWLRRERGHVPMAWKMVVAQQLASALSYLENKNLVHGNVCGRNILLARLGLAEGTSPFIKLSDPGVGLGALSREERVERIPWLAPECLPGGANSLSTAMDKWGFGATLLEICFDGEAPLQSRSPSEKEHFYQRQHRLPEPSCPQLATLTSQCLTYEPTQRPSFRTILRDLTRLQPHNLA
- Protocol Summary: Binding activity test for JH2 domain of TYK2 (Tb-antibody/tracer FRET)
- Experimental Setup: ratio JAK1-JH2 IC50 / TYK2-JH2 IC50
Assay Metric: JAK1/TYK2 selectivity

molecule=[2H]C([2H])([2H])NC(=O)c1cnc(NC(=O)C2CC2)cc1Nc1ccc2ccn(CC)c2c1OC measured_result=36.6
molecule=[2H]C([2H])([2H])NC(=O)c1cnc(Nc2ccn(C)n2)cc1Nc1cc(F)c2cnn(CC)c2c1OC measured_result=28.5
molecule="[2H]C([2H])([2H])NC(=O)c1cnc(NC(=O)C2CC2)cc1Nc1ccn2ncc(C(C)C#N)c2c1OC (single isomer, unassigned) [Example 251B]" measured_result=17.30
molecule="[2H]C([2H])([2H])NC(=O)c1cnc(NC(=O)[C@@H]2C[C@@H]2F)cc1Nc1ccc2cnn(CC)c2c1OC (relative stereo)" measured_result=40.8
molecule=[2H]C([2H])([2H])NC(=O)c1cnc(Nc2ccc(F)cn2)cc1Nc1ncc2cnn(C([2H])([2H])[2H])c2c1OC measured_result=55.5
molecule="[2H]C([2H])([2H])NC(=O)c1cnc(NC(=O)C2CC2)cc1Nc1ccc2cnn(C(C)C#N)c2c1OC (centres unmarked) [Example 249]" measured_result=32.5

(a) [2H]C([2H])([2H])NC(=O)c1cnc(NC(=O)C2CC2)cc1Nc1ccn2ncc(F)c2c1OC
(b) [2H]C([2H])([2H])NC(=O)c1cnc(NC(=O)C2CC2)cc1Nc1ncc2cnn(CCC(F)(F)F)c2c1OC
Kindly compare a with b and tell me which has the lower JAK1/TYK2 selectivity figure. State your choice using its label.
a

* * *

- System: Ba/F3-FL-TYK2-P760L cells (Homo sapiens, UniProt P29597, P760L, cells depend on it)
- Construct: BaF3-FL-T2P760L (nM)
- Protocol Summary: Anti-proliferative assay, Ba/F3-FL-TYK2-P760L cells (Cell-Titer Glo)
- Assay type: cell-based
- Experimental Setup: 72 h, read-out: BaF3-FL-T2P760L IC50
Assay Metric: GI50 (nM)

Field: example entries. Status: answers known.
molecule=[2H]C([2H])([2H])NC(=O)c1cnc2cc1Nc1cc(cc(-c3ncc(OC)cn3)c1OC)COCc1nc(ccc1F)N2 measured_result=53.1
molecule=[2H]C([2H])([2H])NC(=O)c1cnc(NC(=O)C2CC2)cc1Nc1ccn2ncc(F)c2c1OC measured_result=232
molecule=[2H]C([2H])([2H])NC(=O)c1cnc(NC(=O)C2CC2)cc1Nc1ccn2ncc(C([2H])([2H])[2H])c2c1OC measured_result=541

(I) [2H]C([2H])([2H])NC(=O)c1cnc(NC(=O)C2CC2)cc1Nc1cc(F)c2cnn(C([2H])([2H])C([2H])([2H])[2H])c2c1OC
(II) CNC(=O)c1cnc(NC(=O)C2CC2)cc1Nc1cn(C)c2ccn(C)c(=O)c12
Kindly identify which of I and II has the larger recorded GI50 value. State your choice using its label.
II
(II: 416 nM, I: 169 nM)

(I) CNC(=O)c1cnc(NC(=O)C2CC2)nc1Nc1cccc(-c2ncn(C)n2)c1OC
(II) [2H]C([2H])([2H])NC(=O)c1cnc(NC(=O)C2CC2)cc1Nc1cn(C)c2cnn(C(C)C(F)(F)F)c(=O)c12 (stereo not shown)
Kindly compare I with II and tell me which has the lower GI50 figure. State your choice using its label.
I
(I: 172 nM, II: 648 nM)

(P) CCn1ccc2scc(Nc3cc(Nc4ccc(F)cn4)ncc3C(=O)NC)c2c1=O
(Q) [2H]C([2H])([2H])NC(=O)c1cnc(Nc2ccncn2)cc1Nc1ccc2cnn(C([2H])([2H])[2H])c2c1OC
Kindly compare P with Q and tell me which has the lower GI50 figure. State your choice using its label.
P
